tested on: Escherichia coli TOP10; experiment: shrunken log2 fold change of peptide-encoding DNA abundance (4.5 h post-induction vs induction); higher = less antimicrobial activity (less host growth inhibition); details: time post-induction: 4.5 h; library: site-saturation at positions 5, 18, 19, 20
Note to self: values exactly at -0.2 are met. So shrunken log2 fold change at or above -0.2 is met, below is not met.

*Q* Exam item: decide whether the reported shrunken log2 fold change for RRIRSRPPRLPRPRPRPVNDPRP is at least -0.2.
*A* not met

*Q* Exam item: decide whether the reported shrunken log2 fold change for RRIRHRPPRLPRPRPRPQCGPRP is at least -0.2.
*A* not met

*Q* Exam item: decide whether the reported shrunken log2 fold change for RRIRFRPPRLPRPRPRPMNLPRP is at least -0.2.
*A* not met

*Q* Exam item: decide whether the reported shrunken log2 fold change for RRIRNRPPRLPRPRPRPSKNPRP is at least -0.2.
*A* not met

*Q* Exam item: decide whether the reported shrunken log2 fold change for RRIRARPPRLPRPRPRPHARPRP is at least -0.2.
*A* met

* * *

test system: Escherichia coli TOP10; experiment: shrunken log2 fold change of peptide-encoding DNA abundance (4.5 h post-induction vs induction); higher = less antimicrobial activity (less host growth inhibition); settings: time post-induction: 4.5 h; library: site-saturation at positions 5, 18, 19, 20
Note to self: values exactly at 0.1 are rule met. So shrunken log2 fold change at or above 0.1 is rule met, below is rule not met.

Please review the entries below; each comes with its answer.
> print(dat)
          residue.sequence   group.label
1  RRIRVRPPRLPRPRPRPVFGPRP  rule not met
2  RRIRKRPPRLPRPRPRPELDPRP      rule met
3  RRIRQRPPRLPRPRPRPPDWPRP      rule met

# ---- query sequence ----
*Q* Exam item: decide whether the reported shrunken log2 fold change for RRIRERPPRLPRPRPRPEMTPRP is at least 0.1.
*A* rule not met

* * *

system: Escherichia coli TOP10; assay: shrunken log2 fold change of peptide-encoding DNA abundance (4.5 h post-induction vs induction); higher = less antimicrobial activity (less host growth inhibition); settings: time post-induction: 4.5 h; library: site-saturation at positions 5, 18, 19, 20
Reported values of shrunken log2 fold change for individual entries
Lab note: jot down the number only; don't add units.

Completed entries (count: 3):
> print(dat)
          residue.sequence  reported.value
1  RRIRNRPPRLPRPRPRPGCFPRP           0.126
2  RRIRIRPPRLPRPRPRPPHNPRP          -0.521
3  RRIRNRPPRLPRPRPRPWVGPRP          -0.065

*Q* May I ask what shrunken log2 fold change has been recorded for RRIRHRPPRLPRPRPRPAKAPRP ?
*A* 0.0344

*Q* May I ask what shrunken log2 fold change has been recorded for RRIRWRPPRLPRPRPRPRWFPRP ?
*A* 0.999

*Q* May I ask what shrunken log2 fold change has been recorded for RRIRVRPPRLPRPRPRPGAFPRP ?
*A* 0.0224

* * *

tested on: Escherichia coli TOP10; experiment: shrunken log2 fold change of peptide-encoding DNA abundance (4.5 h post-induction vs induction); higher = less antimicrobial activity (less host growth inhibition); conditions: time post-induction: 4.5 h; library: site-saturation at positions 5, 18, 19, 20;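 also: peptides expressed intracellularly from a pBAD plasmid library in pooled LB shake-flask culture, induced with 0.3% L-arabinose, DNA abundance read by NGS, three biological replicates, DESeq2 with apeglm shrinkage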
Definition: the class of an entry is the range in lower: < -0.09; middle: ≥ -0.09 and < 0.1; upper: ≥ 0.1 that contains its shrunken log2 fold change.

Please review the entries below; each comes with its answer.
> print(dat)
           residue.sequence  group.label
 1  RRIRIRPPRLPRPRPRPESYPRP       middle
 2  RRIRDRPPRLPRPRPRPKIHPRP        lower
 3  RRIRDRPPRLPRPRPRPFLTPRP       middle
 4  RRIRERPPRLPRPRPRPGNWPRP       middle
 5  RRIRVRPPRLPRPRPRPEYQPRP        lower
 6  RRIRWRPPRLPRPRPRPDHPPRP       middle
 7  RRIRVRPPRLPRPRPRPFTIPRP       middle
 8  RRIRGRPPRLPRPRPRPPWGPRP        upper
 9  RRIRMRPPRLPRPRPRPTPFPRP        upper
10  RRIRCRPPRLPRPRPRPIEYPRP        lower

*Q* Into which bin does this sequence go? RRIRDRPPRLPRPRPRPYFRPRP
*A* lower

*Q* Into which bin does this sequence go? RRIRCRPPRLPRPRPRPDPTPRP
*A* middle

*Q* Into which bin does this sequence go? RRIRHRPPRLPRPRPRPTWFPRP
*A* upper

*Q* Into which bin does this sequence go? RRIRPRPPRLPRPRPRPVATPRP
*A* upper

*Q* Into which bin does this sequence go? RRIRMRPPRLPRPRPRPCWDPRP
*A* upper

*Q* Into which bin does this sequence go? RRIRRRPPRLPRPRPRPFMDPRP
*A* lower

*Q* Into which bin does this sequence go? RRIRMRPPRLPRPRPRPHTEPRP
*A* upper

*Q* Into which bin does this sequence go? RRIRNRPPRLPRPRPRPSLDPRP
*A* lower

*Q* Into which bin does this sequence go? RRIRFRPPRLPRPRPRPTMTPRP
*A* middle

*Q* Into which bin does this sequence go? RRIRNRPPRLPRPRPRPAIMPRP
*A* lower

*Q* Into which bin does this sequence go? RRIRIRPPRLPRPRPRPVSAPRP
*A* middle

*Q* Into which bin does this sequence go? RRIRIRPPRLPRPRPRPDDVPRP
*A* middle

*Q* Into which bin does this sequence go? RRIRARPPRLPRPRPRPQTWPRP
*A* upper

*Q* Into which bin does this sequence go? RRIRGRPPRLPRPRPRPGIEPRP
*A* upper
